Protein target, amino acids: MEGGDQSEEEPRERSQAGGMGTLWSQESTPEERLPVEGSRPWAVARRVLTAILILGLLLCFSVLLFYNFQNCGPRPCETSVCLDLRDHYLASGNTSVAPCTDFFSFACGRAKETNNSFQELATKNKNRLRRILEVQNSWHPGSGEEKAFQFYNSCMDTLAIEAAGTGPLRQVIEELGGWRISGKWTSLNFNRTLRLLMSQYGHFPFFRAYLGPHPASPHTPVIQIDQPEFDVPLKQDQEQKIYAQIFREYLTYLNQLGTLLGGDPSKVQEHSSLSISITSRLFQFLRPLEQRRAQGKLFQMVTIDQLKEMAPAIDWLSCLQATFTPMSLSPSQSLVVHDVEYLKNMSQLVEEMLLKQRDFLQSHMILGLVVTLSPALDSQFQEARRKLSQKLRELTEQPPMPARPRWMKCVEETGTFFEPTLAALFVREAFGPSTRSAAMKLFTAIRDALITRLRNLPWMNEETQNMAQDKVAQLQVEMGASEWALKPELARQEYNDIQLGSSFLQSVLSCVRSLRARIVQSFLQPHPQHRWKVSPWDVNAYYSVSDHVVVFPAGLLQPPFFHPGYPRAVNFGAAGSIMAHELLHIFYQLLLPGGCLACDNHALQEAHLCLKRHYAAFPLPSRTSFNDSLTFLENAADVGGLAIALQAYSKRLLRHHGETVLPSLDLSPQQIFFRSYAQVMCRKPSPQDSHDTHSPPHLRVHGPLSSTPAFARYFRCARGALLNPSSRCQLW
property.name: Kd (µM)
Give the quantity in µM, number only.

Consider the compound O=C(O)CNC(=O)C(CS)Cc1ccccc1 (stereo not shown) and give its measured Kd. 33
